# TARGET SYSTEM: Trypsin (Homo sapiens, UniProt P07477+P07478+P35030)
# PROCEDURE DETAILS: Inhibitory activity against human trypsin (using Chromozym TH as the substrate)
# Assay type: protein assay
Kindly supply the reported Ki values for the records listed here.
Answers are plain numbers, in nM.

>  <COMPOUND>
CN(C)c1ccc(/N=N/c2ccc(S(=O)(=O)NN=C(N)N)cc2)cc1

>  <Ki (nM)>
1355

$$$$

For every item in the list below, what is its measured Ki?
1. CC(=O)Nc1ccc(S(=O)(=O)N=C(N)N)cc1
2. Cc1ccc(S(=O)(=O)NC(=O)N2CCC[C@H]2C(=O)NCC(=O)Nc2ccc(S(=O)(=O)NN=C(N)N)cc2)cc1
3. N=C(N)NS(=O)(=O)C(F)(F)C(F)(F)C(F)(F)C(F)(F)C(F)(F)C(F)(F)C(F)(F)C(F)(F)F
4. Cc1ccc(S(=O)(=O)NC(=O)N[C@@H](Cc2ccccc2)C(=O)N2CCCC2C(=O)Nc2ccc(S(=O)(=O)NN=C(N)N)cc2)cc1 (some centres not stated)
5. COC(=N)NS(=O)(=O)c1ccc(OC)cc1

1: 1070; 2: 1560; 3: 1950; 4: 1450; 5: 1460

Lab note: N=C(N)NNS(=O)(=O)c1ccc(NC(=O)[C@@H](Cc2ccccc2)NC(=O)OCc2ccccc2)cc1 gave Ki of 1315

###

# TARGET SYSTEM: Trypsin (Homo sapiens, UniProt P07477+P07478+P35030)
# PROCEDURE DETAILS: Inhibitory activity against human trypsin (using Chromozym TH as the substrate)
# Format: protein assay
READOUT LABEL: Ki (µM)
One number for each entry, in µM.

See these solved cases before continuing.
>  <SMILES INPUT>
N=C(N)NS(=O)(=O)c1ccc2ccccc2c1

>  <UNIT TEXT>
µM

>  <Ki>
1.3

$$$$
>  <SMILES INPUT>
N=C(N)NNS(=O)(=O)c1c(Br)c(Br)c(Br)c(Br)c1C(=O)O

>  <UNIT TEXT>
µM

>  <Ki>
1.2

$$$$

Here is the next item to consider.
Lab note: N=C(N)NS(=O)(=O)c1ccc([N+](=O)[O-])cc1 gave Ki of 0.975

###

# TARGET SYSTEM: Trypsin (Homo sapiens, UniProt P07477+P07478+P35030)
# PROCEDURE DETAILS: Inhibitory activity against human trypsin (using Chromozym TH as the substrate)
# Type: protein assay
Kindly supply the reported Ki values for the records listed here.
Answers are plain numbers, in nM.

See these solved cases before continuing.
>  <SMILES INPUT>
N=C(N)NNS(=O)(=O)c1ccc(N)cc1

>  <UNIT TEXT>
nM

>  <TEST VALUE>
1425

$$$$
>  <SMILES INPUT>
N=C(N)NS(=O)(=O)C(F)(F)C(F)(F)C(F)(F)C(F)(F)F

>  <UNIT TEXT>
nM

>  <TEST VALUE>
2100

$$$$

Here is the next item to consider.
Lab note: Cc1ccc(S(=O)(=O)NC(=O)N[C@H](Cc2ccccc2)C(=O)Nc2ccc(S(=O)(=O)NN=C(N)N)cc2)cc1 gave Ki of 1340

###

# TARGET SYSTEM: Trypsin (Homo sapiens, UniProt P07477+P07478+P35030)
# PROCEDURE DETAILS: Inhibitory activity against human trypsin (using Chromozym TH as the substrate)
# Format: protein assay
READOUT LABEL: Ki (nM)
Give bare numbers, in nM.

>  <COMPOUND>
COC(=N)NS(=O)(=O)c1ccccc1C(=O)O

>  <UNIT TEXT>
nM

>  <Ki>
1550

$$$$
>  <COMPOUND>
N=C(N)NS(=O)(=O)Cc1ccccc1

>  <UNIT TEXT>
nM

>  <Ki>
1350

$$$$
>  <COMPOUND>
COC(=N)NS(=O)(=O)Cc1ccccc1

>  <UNIT TEXT>
nM

>  <Ki>
1900

$$$$

For every item in the list below, what is its measured Ki?
1. Cc1ccc(S(=O)(=O)NC(=O)NCC(=O)N[C@@H](Cc2c[nH]cn2)C(=O)Nc2ccc(S(=O)(=O)NN=C(N)N)cc2)cc1
2. COC(=N)NS(=O)(=O)c1ccc(NC(=O)[C@H](Cc2c[nH]cn2)NC(=O)CNC(=O)NS(=O)(=O)c2ccc(C)cc2)cc1
3. CN(C)c1ccc(/N=N/c2ccc(S(=O)(=O)N=C(N)N)cc2)cc1
4. CN(C)c1cccc2c(S(=O)(=O)N=C(N)N)cccc12
5. N=C(N)NS(=O)(=O)c1cccc2ccccc12

1555
1550
1245
1150
1230

For every item in the list below, what is its measured Ki?
1. N=C(N)NNS(=O)(=O)c1ccc2ccccc2c1
2. COC(=N)NS(=O)(=O)c1ccc(NC(=O)C2CCCN2C(=O)NS(=O)(=O)c2ccc(C)cc2)cc1 (configuration not stated)
3. COC(=N)NS(=O)(=O)c1cccc([N+](=O)[O-])c1
4. Cc1ccc(S(=O)(=O)NC(=O)NCCC(=O)N[C@@H](Cc2c[nH]cn2)C(=O)Nc2ccc(S(=O)(=O)NN=C(N)N)cc2)cc1
5. Cc1ccc(S(=O)(=O)NC(=O)N2CCCC2C(=O)Nc2ccc(S(=O)(=O)NN=C(N)N)cc2)cc1 (configuration not stated)
6. N=C(N)NS(=O)(=O)c1cccc([N+](=O)[O-])c1
7. COC(=N)NS(=O)(=O)c1cccs1
8. CC1(C)C2CCC1(CS(=O)(=O)N=C(N)N)C(=O)C2 (configuration not stated)

1285
1500
1375
1390
1530
1100
1350
980

Lab note: Cc1ccc(S(=O)(=O)NC(=O)N2CCC[C@H]2C(=O)NCC(=O)Nc2ccc(S(=O)(=O)N=C(N)N)cc2)cc1 gave Ki of 1400
